B1: INTS3 (parent)
chain: AQLQALRQKEVDFCISLLRERFME

variants of: B1; test: protein stability index of a GFP-peptide fusion (GPS, HEK-293T) (PSI 1-6); higher = more stable; conditions: c terminus: a fixed tail appended;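 note: lentivirally expressed fusions sorted by FACS into six bins by GFP to DsRed ratio, PSI derived from sequencing read proportions per bin multiplied by bin number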
metric_name: protein stability index
Answer with a number only.

The following variants have reported results that may help.
variant_string: L18G
protein stability index: 3.07

variant_string: L6N
protein stability index: 1.97

variant_string: L18A
protein stability index: 1.7

variant_string: Q2D
protein stability index: 3.29

variant_string: L17D
protein stability index: 2.56

Query :: I'd like to know its protein stability index. The variant in question is E20K
Result :: 2.09

Query :: I'd like to know its protein stability index. The variant in question is F22W
Result :: 3.21

Query :: I'd like to know its protein stability index. The variant in question is E24A
Result :: 3.89

Query :: I'd like to know its protein stability index. The variant in question is L6W
Result :: 1.73

Query :: I'd like to know its protein stability index. The variant in question is F22H
Result :: 1.18

Query :: I'd like to know its protein stability index. The variant in question is E10F
Result :: 2.15

Query :: I'd like to know its protein stability index. The variant in question is E10Y
Result :: 1.49

Query :: I'd like to know its protein stability index. The variant in question is L17F
Result :: 1.9

Query :: I'd like to know its protein stability index. The variant in question is E10K
Result :: 2.2

Query :: I'd like to know its protein stability index. The variant in question is R7F
Result :: 2.46

Query :: I'd like to know its protein stability index. The variant in question is L3M
Result :: 2

Query :: I'd like to know its protein stability index. The variant in question is F13E
Result :: 1.66

Query :: I'd like to know its protein stability index. The variant in question is D12N
Result :: 1.59

Query :: I'd like to know its protein stability index. The variant in question is A1P
Result :: 3.68
